# tested.target: Neurolysin (Nln) (Rattus norvegicus)
# Construct: polyhistidine (N); made in house; host or cells: Escherichia coli (pBAD/His vector), if the rat enzyme of b61 was used
# Sequence (P42676 38-704): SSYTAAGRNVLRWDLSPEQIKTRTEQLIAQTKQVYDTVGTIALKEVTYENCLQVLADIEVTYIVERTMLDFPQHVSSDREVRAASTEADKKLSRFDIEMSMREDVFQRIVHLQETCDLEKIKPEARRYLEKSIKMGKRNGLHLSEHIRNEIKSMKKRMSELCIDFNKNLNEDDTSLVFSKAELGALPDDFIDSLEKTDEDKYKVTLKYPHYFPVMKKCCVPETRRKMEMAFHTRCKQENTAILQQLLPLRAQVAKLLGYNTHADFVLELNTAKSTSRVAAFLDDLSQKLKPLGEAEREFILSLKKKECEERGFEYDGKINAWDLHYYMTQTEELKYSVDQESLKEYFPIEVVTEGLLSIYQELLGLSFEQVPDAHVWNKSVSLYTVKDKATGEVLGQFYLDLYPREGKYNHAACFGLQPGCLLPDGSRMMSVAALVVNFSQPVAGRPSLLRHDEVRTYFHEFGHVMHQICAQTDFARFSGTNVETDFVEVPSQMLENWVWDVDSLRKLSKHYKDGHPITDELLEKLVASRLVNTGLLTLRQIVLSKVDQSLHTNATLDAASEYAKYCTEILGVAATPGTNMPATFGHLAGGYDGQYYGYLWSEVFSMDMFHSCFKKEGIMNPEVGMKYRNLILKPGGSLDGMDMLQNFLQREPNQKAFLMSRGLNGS
# test.name: Nln activation in isolated enzyme assay (A50, Amax)
# Format: biochemical
# assay.setup: A50 (concentration required to activate Nln by 50%), 95% CI in parentheses
value.type: EC50 (µM)

[[record]]
compound = "N[C@@H](Cc1c[nH]cn1)C(=O)NCCc1c[nH]c2ccccc12 [Compound 9d]"
measured_result = 6.1


###

Recorded % activity at 10 by entry
# tested.target: rat recombinant neurolysin (Rattus norvegicus, UniProt P42676)
# Construct: polyhistidine (N); made in house; host or cells: Escherichia coli (pBAD/His vector)
# Sequence (P42676 38-704): as above
# test.name: Enzymatic assay: QFS hydrolysis by rat recombinant neurolysin
# Type: biochemical
# assay.setup: 10 μM compound; QFS 25 μM; compared to vehicle control
Square brackets hold non-standard residues; d marks the D form. Peptide text beside a SMILES is read from it. Tyr(3-NO2) = N[CH](Cc1ccc(O)c([N+](=O)[O-])c1)C(=O)O
value.type: % activity at 10

[[record]]
compound = "N#CC(C#N)N=Nc1ccc(S(=O)(=O)N=C(N)N)cc1 [Compound 134119]"
tested_target = "rat recombinant neurolysin (Rattus norvegicus, UniProt P42676)"
measured_result = "83%"

[[record]]
compound = "COC(=O)CCN1CCN(CCO)CC1C (stereo not drawn) [Compound 659264]"
tested_target = "rat recombinant neurolysin (Rattus norvegicus, UniProt P42676)"
measured_result = "104%"

[[record]]
compound = "COCN1CCC2N(COC)CCC3N(COC)CCC1N23 (stereo not drawn) [Compound 82001]"
tested_target = "rat recombinant neurolysin (Rattus norvegicus, UniProt P42676)"
measured_result = "105%"

[[record]]
compound = "CC1(C)SC(C(NC(=O)Cc2ccccc2)C(=O)O)NC1C(=O)O (stereo not drawn) [Compound 163084]"
tested_target = "rat recombinant neurolysin (Rattus norvegicus, UniProt P42676)"
measured_result = "103%"

[[record]]
compound = "CC(NCCN1CCCC1)C(O)c1ccc(O)c(O)c1.Cl (stereo not drawn) [Compound 48778]"
tested_target = "rat recombinant neurolysin (Rattus norvegicus, UniProt P42676)"
measured_result = "89%"

[[record]]
compound = "O=P1(NCC2CCCO2)OCC2(CO1)COP(=O)(NCC1CCCO1)OC2 (stereo not drawn) [Compound 88659]"
tested_target = "rat recombinant neurolysin (Rattus norvegicus, UniProt P42676)"
measured_result = "100%"

[[record]]
compound = "Cl.NC(=O)C(Cc1ccc(O)c([N+](=O)[O-])c1)NC(=O)C(N)Cc1ccccc1 (stereo not drawn) [Compound 343028] (H-Phe-[Tyr(3-NO2)]-NH2; configuration not given here)"
tested_target = "rat recombinant neurolysin (Rattus norvegicus, UniProt P42676)"
measured_result = "98%"

[[record]]
compound = "Clc1cc(Cl)c(C[N+]23CN4CN(CN(C4)C2)C3)cc1Cl.[Cl-] [Compound 155877]"
tested_target = "rat recombinant neurolysin (Rattus norvegicus, UniProt P42676)"
measured_result = "82%"

[[record]]
compound = "CC1CN(CCCN)C(C)CN1CCCN (stereo not drawn) [Compound 14541]"
tested_target = "rat recombinant neurolysin (Rattus norvegicus, UniProt P42676)"
measured_result = "97%"

